Target: T1, human CD20 antigen (human, UniProt P11836 1-297)
T1 construct: whole, on cells; also called Bp35; B1
T1 sequence (looked up): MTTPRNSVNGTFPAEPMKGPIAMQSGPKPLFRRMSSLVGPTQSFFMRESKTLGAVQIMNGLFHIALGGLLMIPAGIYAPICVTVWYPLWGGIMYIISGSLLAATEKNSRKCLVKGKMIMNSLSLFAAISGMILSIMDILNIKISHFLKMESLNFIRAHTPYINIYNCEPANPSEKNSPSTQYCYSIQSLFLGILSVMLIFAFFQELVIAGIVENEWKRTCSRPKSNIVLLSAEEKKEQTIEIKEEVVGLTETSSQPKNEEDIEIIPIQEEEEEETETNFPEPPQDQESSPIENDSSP
Experiment: flow cytometry, EHEB cells (CD20 positive)
Measured Mean Fluorescence Intensity (MFI), listed per entry for reference.
Just so you know, I need the unit written after the number.

{"binder": "optimized humanized mAb 1589 (antibody, V domains shown) VH: QVQLVQSGAEVKKPGSSVKVSCKASGYTFTSYNMHWVRQAPGQGLEWIGAIYPGNGATSYNQKFKGKATITADKSTSTAYMELSSLRSDDTAVYYCARSTYYAGDWNFNNWGQGTLVTVSS VL: DIQMTQSPSSLSASVGDRVTITCRASSSVSYIHWFQQKPGKAPKPLIYAASSLQSGVPSRFSGSGSGTDYTLTISSLQPEDFATYYCQQWTSNPPTFGGGTKLEIK", "Mean Fluorescence Intensity (MFI)": "345 MFI"}

Next binder, please.
Annotate the binder optimized humanized mAb 1692 (antibody, V domains shown) VH: QVQLVQSGAEVKKPGSSVKVSCKASGYTFTSYNMHWVRQAPGQGLEWIGAIYPGNGDTSYNQKFKGKATITADKSTSTAYMELSSLRSDDTAVYYCARSTYYAGDWNFGNWGQGTLVTVSS VL: DIQMTQSPSSLSASVGDRVTITCRASSSVSYIHWFQQKPGKAPKPLIYAASSLQSGVPSRFSGSGSGTDYTLTISSLQPEDFATYYCQQWTSNPPTFGGGTKLEIK with its measured Mean Fluorescence Intensity (MFI). 450 MFI
